Reference source for all entries: PubChem BioAssay

Test system: TRPC4 beta (transient receptor potential cation channel C4), mouse
assay_overview: TRPC4 cation channel opening, retest – cell-based, Fluo4 calcium, HEK293 TRPC4beta/mu-opioid, duplicates, 10 µM, confirmation (AID 2426)
measurement_conditions: Fluo4 calcium fluorescence, at 10 µM
Activity calls are given as the source filed them.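 How the source made its calls: active means fluorescence ratio normalized to control raised more than 50% in primary screen plus both repeat runs; inactive means the rest.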
Thanks in advance; please answer with one of these: active, inactive

Study these solved cases before continuing.
1. c1ccc(C(c2nnnn2C2CCCC2)N2CCN(c3ccccc3)CC2)cc1 (stereo unspecified) :: inactive
2. C=CCc1ccccc1OCC(CN1CCCCC1)OC(C)=O (stereo unspecified) :: inactive
3. COC(=O)C1=C(C)N(Cc2ccccc2)C(=S)N[C@H]1c1ccccc1 :: inactive
4. COC(=O)c1ccc(C(=S)NCC2(N(C)C)CCCCC2)cc1 :: active
5. CN(CCc1ccccn1)C1CC(=O)N(c2ccc(Cl)cc2)C1=O (stereo unspecified) :: active
6. Cc1cccc(C)c1N1CCc2cn[nH]c21 :: inactive
7. CC(C)NC(=S)N1CCN(C/C=C/c2ccccc2)CC1 :: inactive
8. Cc1cc(OCc2cc(C(=O)NCC3(C)COC3)no2)cc(C)c1Cl :: inactive

Exercise: Which outcome did this test record for the molecule `CC(C)Cc1nc(Cl)c(C#N)c2c1CCCC2` ?
Key: inactive
